# TARGET OF ASSAY: Focal adhesion kinase 1 (Homo sapiens)
# TEST METHOD NOTES: small-molecule microarray binders of FAK, primary screen, biochemical, 635/667 nm fluorescence, BSA, DTT (AID 1130);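 note: composite of spot emission at 667 nm and signal to noise over triplicate slides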
# MEASUREMENT CONTEXT: PTK2 binding, 635 nm fluorescence, higher = more signal
Entry flag: yes if composite z-score reaches 0.004; no if it does not.

MOLECULE | CLASS ASSIGNMENT
[N-]=[N+]=NCc1ccccc1[C@H]1OC(c2ccc(OCCCO)cc2)=N[C@@]1(CCS(=O)(=O)c1ccccc1)C(N)=O | yes
CN(C)CCCN1C(=O)[C@@]2(c3ccc([N+](=O)[O-])cc3)CC(=O)N(CC34CC5CC(CC(C5)C3)C4)[C@@H]2c2ccc(CO)cc21 | no
COCCCNC(=O)[C@@]1(Sc2ccc(C)cc2)CC(=O)N(Cc2cc(C(F)(F)F)cc(C(F)(F)F)c2)[C@@H]1c1ccc(CO)cc1 | yes
CC(C)(C)OC(=O)CC[C@]1(C(=O)O)N=C(c2ccc(OCCCO)cc2)O[C@H]1c1ccccc1 | yes
COC(=O)[C@@]1(Cc2ccccc2)[C@H]2c3cc(C(=O)N4CCCC4)n(Cc4cc(F)cc5c4OCOC5)c3C[C@H]2CN1C(=O)c1ccccc1 | yes
CC(C)(C)OC(=O)CC[C@]1(C(=O)N2CCOCC2)N=C(c2ccc(OCCCO)cc2)O[C@H]1c1ccccc1 | yes
COc1cc2c(cc1O)C(C)N(Cc1cc3c(cc1Br)OCO3)CC2 (configuration not stated) | no

====

# TARGET OF ASSAY: Torsin-1A-interacting protein 2 (Homo sapiens) (UniProt Q8NFQ8)
# Sequence (Q8NFQ8 whole entry, looked up): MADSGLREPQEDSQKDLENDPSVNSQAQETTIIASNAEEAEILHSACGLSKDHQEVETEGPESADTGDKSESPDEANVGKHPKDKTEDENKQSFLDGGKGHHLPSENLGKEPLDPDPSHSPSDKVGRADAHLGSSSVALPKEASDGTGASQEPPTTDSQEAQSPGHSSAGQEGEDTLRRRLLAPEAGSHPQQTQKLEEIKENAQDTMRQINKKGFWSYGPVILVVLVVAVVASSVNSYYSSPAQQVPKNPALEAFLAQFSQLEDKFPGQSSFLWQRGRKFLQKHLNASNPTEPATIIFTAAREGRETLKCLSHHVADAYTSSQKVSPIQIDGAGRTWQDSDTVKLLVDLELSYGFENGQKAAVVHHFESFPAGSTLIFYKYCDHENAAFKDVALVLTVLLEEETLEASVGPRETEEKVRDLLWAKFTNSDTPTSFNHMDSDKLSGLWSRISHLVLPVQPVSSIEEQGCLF
# TEST METHOD NOTES: LULL1 binders on small-molecule microarray, primary screen, cell lysate, human LULL1 lysate, 635/667 nm fluorescence (AID 1092);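 note: probe is lysate of COS7 cells overexpressing human LULL1; score merges per-feature 667 nm fluorescence with signal-to-noise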
# MEASUREMENT CONTEXT: hLULL1 lysate binding, 635 nm fluorescence, higher = more signal
MEASUREMENT NAME: composite z-score

MOLECULE | VALUE
COc1ccc([Si](C)(C)[C@H]2[C@H](CCn3cc([C@H](O)c4ccccc4)nn3)O[C@@]3(C(=O)N(Cc4ccc(N5CCOC5=O)cc4)c4ccccc43)[C@@H]2C)cc1 | -0.241
CCOC(=O)C1=CC[C@@H](c2ccccc2C(F)(F)F)N(S(=O)(=O)c2ccc(C)cc2)C1 | 2.63
COCCCNC(=O)[C@]1(Cc2ccccc2N=[N+]=[N-])N=C(c2ccc(OCCCO)cc2)O[C@@H]1c1ccccc1N=[N+]=[N-] | 2.72
CCCCN1CC=CC23O[C@@H]4C=CCOC(=O)[C@@H]4[C@H]2C(=O)N(C(C)CO)[C@@H]3C1=O (some centres not stated) | -0.449
C=CCC(OC(C)=O)[C@@H]1[C@@H](N(Cc2ccc(-c3ccccc3)cc2)C(=O)c2cccc3ccccc23)c2cc(OCCCO)ccc2N1C(=O)Cc1ccc2ccccc2c1 (some centres not stated) | 0.95
CC(C)C(=C=CC[C@H](O)c1ccc(OCCO)cc1)C[C@H](O)c1cc(Cl)cc(Cl)c1O | 1.78
CC=CC(O)C1C=CC2C(=O)N(C)C(=O)C2N1N1CCCCC1 (configuration not stated) | 3.52

====

# Test system: wheat germ agglutinin (Triticum aestivum), Alexa647-labelled
# TEST METHOD NOTES: wheat germ agglutinin binders on compound microarrays, profiling panel, artefact control for SMM control-protein annotation, biochemical, small-molecule microarray, 635/667 nm fluorescence (AID 1140);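 note: score merges 667 nm feature emission with signal to noise over triplicate slides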
# MEASUREMENT CONTEXT: WGA-A647 binding, 635 nm fluorescence, higher = more signal

MOLECULE | composite z-score
CN(C)CCCN1C(=O)[C@@]2(c3ccc([N+](=O)[O-])cc3)CC(=O)N(CC34CC5CC(CC(C5)C3)C4)[C@@H]2c2ccc(CO)cc21 | 0.354
COC(=O)C(CC#Cc1ccc2c(c1)[C@]1(C(=O)N2)[C@H](C(=O)O)[C@H]2C(=O)O[C@H](c3ccccc3)[C@H](c3ccccc3)N2[C@@H]1c1ccccc1OCCO)C(=O)OC | 1.18
C[C@@H](OCc1ccccc1)C1NC(=O)[C@@]23C(=O)N[C@@H](Cc4ccccc4)C2[C@H](C)[C@@]2(C)O[C@H]2C3/C=C/C/C=C\CNC(=O)CNC1=O (stereo partly specified) | -1.08
COC(=O)[C@@]1(Cc2ccc(F)cc2)[C@H]2c3cc(C(=O)N4CCCC4)n(CCc4c[nH]c5ccc(OC)cc45)c3C[C@H]2CN1C(=O)c1ccccc1 | 0.977
CCCCN1CC=CC23O[C@@H]4/C=C\CCC(C)OC(=O)C4[C@H]2C(=O)N(CCCCCCO)[C@@H]3C1=O (stereo partly specified) | -0.465
C=CCN1C(=O)[C@]2(CC=C)N=C(c3ccc(OCCCO)cc3)O[C@@H]2c2ccccc21 | 1.14

====

molecules and their reported composite z-score
# TEST METHOD NOTES: small-molecule binders of probe aNOTCH2, primary screen, biochemical, small-molecule microarray, 635/667 nm fluorescence (AID 1121);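 note: score merges feature fluorescence read at 667 nm with its signal to noise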
# MEASUREMENT CONTEXT: higher = more signal

MOLECULE | composite z-score
O=C1NC(=O)C2C1C=CC(C(O)c1c(F)cccc1Cl)N2Nc1ccccn1 (stereo not drawn) | 0.0203
CN(C)CCCNC(=O)[C@@]1(C)c2ccccc2C(=O)N(Cc2cc(C(F)(F)F)cc(C(F)(F)F)c2)[C@H]1c1ccc(CO)cc1 | -0.0341
CC(=O)NCCCC[C@@H]1NC(=O)[C@@H]2C[C@H](C(=O)O)[C@H](c3ccc(O)cc3)N2C1=O | -0.1
Cc1ccc(S[C@]2(C(=O)NC3CC3)CC(=O)N(Cc3ccccc3Cl)[C@@H]2c2ccc(CO)cc2I)cc1 | -0.0419
C=CCN1Cc2ccccc2C[C@@]2(N=C(c3ccc(OCCCO)cc3)O[C@H]2c2ccccc2)C1=O | -0.0148
CCCNC(=O)[C@@]1(c2ccc([N+](=O)[O-])cc2)CC(=O)N(C2CCCCC2)[C@@H]1c1ccc(CO)cc1I | -0.0635
COC(=O)C1(Cc2ccccc2)C=C2C(=C(C(C)C)C(=O)C2C)CN1 (stereo not drawn) | 0.168
COC(=O)C1(Cc2ccccc2)C=C2C(=C(c3ccccc3)C(=O)C2C)CN1 (stereo not drawn) | 0.839

====

# Tested on: Human papillomavirus type 1a protein E7 (residues 44-93)
# TEST METHOD NOTES: HPV1a E7 fragment binders on microarrays, primary screen, biochemical, small-molecule microarray, residues 44-93, 635 nm fluorescence (AID 1108);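 note: E7 fragment applied at 1 µg/mL in TBST for 1 h at 4 C; score combines spot fluorescence with its signal to noise ratio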
# MEASUREMENT CONTEXT: small-molecule microarray binding, fluorescence 635 nm; higher = more signal

COMPOUND | composite z-score
C=C(C(=O)CC[C@H](OC(=O)c1cccnc1)c1ccc(CO)o1)C(C)C | 0.362
COC(=O)[C@@]1(Cc2ccccc2)[C@H]2c3cc(C(=O)N4CCCC4)[nH]c3C[C@H]2CN1C(=O)c1ccccc1 | -1.89
C=C(CCCC)C(=O)CC[C@@H](OC(=O)c1ccccc1-c1ccccc1C(=O)O)c1cccc(OCCO)c1 | 0.834
COC(=O)[C@@]1(Cc2ccccc2)[C@H]2c3cc(C(=O)N4CCCC4)n(C[C@H](O)CO)c3C[C@H]2CN1C(=O)c1ccccc1 | 0.391
O=C1O[C@@H](c2ccccc2)[C@@H](c2ccccc2)N2[C@@H](c3ccccc3OCCO)[C@]3(C(=O)Nc4ccc(C#CCCO)cc43)[C@@H](C(=O)N3CCN(c4ncccn4)CC3)[C@H]12 | 1.39
O=C1OCC=C[C@H]2OC34C=CCN(Cn5nnc6ccccc65)C(=O)[C@H]3N(CCCCCCO)C(=O)[C@@H]4[C@@H]12 (some centres undefined) | -0.0554
O=C1O[C@@H](c2ccccc2)[C@@H](c2ccccc2)N2[C@@H](c3ccccc3OCCO)[C@]3(C(=O)Nc4ccccc43)[C@@H](C(=O)NC[C@H](O)c3ccccc3)[C@H]12 | 0.705
Cc1ccc(S[C@]2(C(=O)NC3CC3)CC(=O)N(Cc3ccccc3Cl)[C@@H]2c2ccc(CO)cc2I)cc1 | 1.45
CC(C)C(=C=CC[C@H](O)c1ccc(OCCO)cc1)C[C@H](O)c1cc(Cl)cc(Cl)c1O | 0.927
COC(=O)C[C@H]1O[C@]2(C(=O)N(C)c3ccccc32)[C@@H](C)[C@@H]1[Si](C)(C)c1ccc(C)cc1 | 1.15
CN(C)CCCNC(=O)[C@@]1(C)c2ccccc2C(=O)N(Cc2cc(C(F)(F)F)cc(C(F)(F)F)c2)[C@H]1c1ccc(CO)cc1 | -0.488
CO[C@H]1O[C@H](CO)[C@@H](OC(=O)Nc2ccc(C(F)(F)F)cc2)[C@H](OC(=O)Nc2ccc3c(c2)OCO3)[C@H]1OC(=O)Nc1ccc2c(c1)OCO2 | 1.33
O=C(O)[C@H](Cc1ccccc1)n1cc(-c2ccccn2)nn1 | 0.55
COc1ccc(C#Cc2ccc3c(c2)[C@]2(C(=O)N3)[C@H](C(=O)N3CCc4cc(OC)c(OC)cc4C3)[C@H]3C(=O)O[C@H](c4ccccc4)[C@H](c4ccccc4)N3[C@@H]2c2ccc(O)cc2)cc1 | 1.38
